Test: Plasma pharmacokinetics after IV CMS (Period 1)
Conditions: human, in vivo, iv, 3.3 mg/kg, Vdss, Period 1, Cohort 3: IV 3.3 mg/kg colistin base activity q8h x 3 doses; plasma after final dose; mean (SD); SD
Where a SMILES comes first, the peptide text is derived from it. Bridges are numbered along the chain shown (N, C = ends). [ ]: non-standard residue; d: D form. The star is where a group is joined. Heptanoyl(6-Me) = CC(C)CCCCC(=O)*; X1 = CC[C@H](C)CCCCC(=O)*; Dab = NCC[C@H](N)C(=O)O
Vd reference
Write the value in L as a bare number.

| Molecule | Vd (L) |
| --- | --- |
| CC(C)CCCCC(=O)N[C@@H](CCN)C(=O)N[C@H](C(=O)N[C@@H](CCN)C(=O)N[C@H]1CCNC(=O)[C@H]([C@@H](C)O)NC(=O)[C@H](CCN)NC(=O)[C@H](CCN)NC(=O)[C@H](CC(C)C)NC(=O)[C@@H](CC(C)C)NC(=O)[C@H](CCN)NC1=O)[C@@H](C)O [colistin B] ({Heptanoyl(6-Me)}-[Dab]T[Dab][Dab][Dab][dL]L[Dab][Dab]T; lactam 4-C) | 17.3 |

We next turn to a different molecule, shown below.
## Task Suppose we examine the molecule CC[C@H](C)CCCCC(=O)N[C@@H](CCN)C(=O)N[C@H](C(=O)N[C@@H](CCN)C(=O)N[C@H]1CCNC(=O)[C@H]([C@@H](C)O)NC(=O)[C@H](CCN)NC(=O)[C@H](CCN)NC(=O)[C@H](CC(C)C)NC(=O)[C@@H](CC(C)C)NC(=O)[C@H](CCN)NC1=O)[C@@H](C)O [colistin A] (X1-[Dab]T[Dab][Dab][Dab][dL]L[Dab][Dab]T; lactam 4-C) ; what Vd value has been reported?
## Result 22.2
